Origin of values: ChEMBL document CHEMBL3407470

This section presents molecules with their documented IC50 values.
- TARGET_UNDER_TEST: Tubulin (Bos taurus, UniProt Q6B856+Q862L2+Q862F3)
- METHOD: Inhibition of bovine brain tubulin polymerization incubated for 20 mins by spectrophotometry
Kindly provide the numeric value in nM only, without the unit symbol.

Answered examples (2):
[[record]]
structure_as_smiles = "Cc1ccc(-c2cc(NC(=O)/C=C/c3ccc(Cl)cc3)n[nH]2)cc1"
target_under_test = "Tubulin (Bos taurus, UniProt Q6B856+Q862L2+Q862F3)"
endpoint_value = 2150

[[record]]
structure_as_smiles = "O=C(/C=C/c1ccc(F)cc1)Nc1cc(-c2ccccc2)[nH]n1"
target_under_test = "Tubulin (Bos taurus, UniProt Q6B856+Q862L2+Q862F3)"
endpoint_value = 1850


// next entry
Problem: Param readout = IC50; param system = Tubulin (Bos taurus, UniProt Q6B856+Q862L2+Q862F3); param query = `O=C(/C=C/c1ccccc1)Nc1cc(-c2ccccc2)[nH]n1` ; response: value
Result: 2840

---

pIC50 values, listed per item
- TARGET_UNDER_TEST: Tubulin (Bos taurus, UniProt Q6B856+Q862L2+Q862F3)
- METHOD: Inhibition of bovine brain tubulin polymerization incubated for 20 mins by spectrophotometry
Just the number, please, no unit after it.

[[record]]
structure_as_smiles = "Cc1ccc(-c2cc(NC(=O)/C=C/c3ccccc3)n[nH]2)cc1"
endpoint_value = 5.506

[[record]]
structure_as_smiles = "O=C(/C=C/c1ccc(Br)cc1)Nc1cc(-c2ccccc2)[nH]n1"
endpoint_value = 5.627

[[record]]
structure_as_smiles = "COc1ccc(/C=C/C(=O)Nc2cc(-c3ccc(Br)cc3)[nH]n2)cc1"
endpoint_value = 5.87

[[record]]
structure_as_smiles = "O=C(/C=C/c1ccc(C(F)(F)F)cc1)Nc1cc(-c2ccc(Br)cc2)[nH]n1"
endpoint_value = 5.991

[[record]]
structure_as_smiles = "O=C(/C=C/c1ccc(Cl)cc1)Nc1cc(-c2ccccc2)[nH]n1"
endpoint_value = 5.686

[[record]]
structure_as_smiles = "Cc1ccc(/C=C/C(=O)Nc2cc(-c3ccccc3)[nH]n2)cc1"
endpoint_value = 5.52

[[record]]
structure_as_smiles = "O=C(/C=C/c1ccc(Br)cc1)Nc1cc(-c2ccc(Br)cc2)[nH]n1"
endpoint_value = 5.67

[[record]]
structure_as_smiles = "Cc1ccc(-c2cc(NC(=O)/C=C/c3ccc(F)cc3)n[nH]2)cc1"
endpoint_value = 5.717


Problem: Recall the recorded pIC50 for `Cc1ccc(-c2cc(NC(=O)/C=C/c3ccc(Br)cc3)n[nH]2)cc1` with Tubulin (Bos taurus, UniProt Q6B856+Q862L2+Q862F3) and state it.
Result: 5.593

Problem: Another compound to look at: `O=C(/C=C\c1ccc(F)cc1)Nc1cc(-c2ccc(Br)cc2)[nH]n1`
Result: 5.75

Problem: And the next one, `O=C(/C=C/c1ccc([N+](=O)[O-])cc1)Nc1cc(-c2ccccc2)[nH]n1` ?
Result: 5.807

---

- TARGET_UNDER_TEST: Tubulin (Bos taurus, UniProt Q6B856+Q862L2+Q862F3)
- METHOD: Inhibition of bovine brain tubulin polymerization incubated for 20 mins by spectrophotometry
Rule: measured IC50 below 2000 nM gets condition met; anything equal to or greater than 2000 nM gets condition not met.

Illustrative cases are given below, each with its answer.
[[record]]
structure_as_smiles = "COc1ccc(/C=C/C(=O)Nc2cc(-c3ccc(C)cc3)[nH]n2)cc1"
assigned_label = "condition met"

[[record]]
structure_as_smiles = "COc1ccc(/C=C\\C(=O)Nc2cc(-c3ccccc3)[nH]n2)cc1"
assigned_label = "condition met"


Problem: Does this compound meet the criterion IC50 < 2000 nM? `O=C(/C=C/c1ccc(Br)cc1)Nc1cc(-c2ccc(Br)cc2)[nH]n1`
Result: condition not met
